The following compounds are shown together with reported pIC50 values.
# assayed.target: BIR3 domain of XIAP (Homo sapiens (Human), UniProt P98170)
# Sequence (P98170 other isoform, or with tags, fused parts or gaps): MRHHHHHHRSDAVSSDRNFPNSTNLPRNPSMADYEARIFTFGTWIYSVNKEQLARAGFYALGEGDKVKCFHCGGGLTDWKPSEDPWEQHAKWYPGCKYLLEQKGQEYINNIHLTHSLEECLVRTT
# assay: TR-FRET assay for BIR3: inhibition of binding of XIAP BIR3 domain to Peptide A (SMAC-derived peptide)
# test.settings: 6× His-tagged BIR3 domain (aa 241-356 of XIAP) 10 nM, Peptide A 20 nM
pIC50: −log10 of the molar value.

Below: 3 compounds and their reported pIC50.
1) CN[C@@H](C)C(=O)N[C@H]1CN(C(=O)c2cncc(C(=O)N3C[C@H](NC(=O)[C@H](C)NC)C(=O)N(Cc4c(OC)ccc5cc(Br)ccc45)c4ccccc43)c2)c2ccccc2N(Cc2c(OC)ccc3cc(Br)ccc23)C1=O [Ex 8] :: < 5.26
2) CN[C@@H](C)C(=O)N[C@H]1CN(C(=O)CCCCCCC(=O)N2C[C@H](NC(=O)[C@H](C)NC)C(=O)N(Cc3c(OC)ccc4cc(Br)ccc34)c3ccccc32)c2ccccc2N(Cc2c(OC)ccc3cc(Br)ccc23)C1=O [Ex 18] :: < 5.26
3) CN[C@@H](C)C(=O)N[C@H]1CN(C(=O)c2cc(C)c(C(=O)N3C[C@H](NC(=O)[C@H](C)N)C(=O)N(Cc4c(OC)ccc5cc(Br)ccc45)c4ccccc43)cc2C)c2ccccc2N(Cc2c(OC)ccc3cc(Br)ccc23)C1=O [Ex 13] :: < 5.26

QUERY: Output reported pIC50 of the compound CN[C@@H](C)C(=O)N[C@H]1CN(C(=O)c2ccc(C(=O)N3C[C@H](NC(=O)[C@H](C)NC)C(=O)N(Cc4c(OC)ccc5cc(Br)ccc45)c4ccccc43)c(C)c2)c2ccccc2N(Cc2c(OC)ccc3cc(Br)ccc23)C1=O [Ex 10] on BIR3 domain of XIAP (Homo sapiens (Human), UniProt P98170).
RESULT: < 5.26

These measurements were taken from patent US9409888B2.
